Values from patent US20220267462A1

# test-target: T1, cynomolgus EpCAM protein (cynomolgus, UniProt Q1WER1 27-265 (rhesus entry), limits assumed, biotinylated in the Octet assays (site not stated))
# T1 construct: also called cy EpCAM; biotinylated cynomolgus EpCAM protein
# T1 sequence: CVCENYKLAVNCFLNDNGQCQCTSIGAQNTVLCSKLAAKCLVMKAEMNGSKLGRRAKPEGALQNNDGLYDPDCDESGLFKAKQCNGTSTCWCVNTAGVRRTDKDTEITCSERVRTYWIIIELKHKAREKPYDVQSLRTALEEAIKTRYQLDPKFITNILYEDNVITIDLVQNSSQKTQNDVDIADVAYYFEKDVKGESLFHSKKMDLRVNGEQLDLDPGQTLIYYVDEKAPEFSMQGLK
# test-protocol: colorimetric ELISA
reported-endpoint: Cynomolgus EpCAM/Control

EPL127 (VHH) VHH: QVQLQESGGGLVQAGGSLRLSCAAPGFAFNDHAILWFRQAPGKEREGVSEICRDGTTYYTDSVKGRFTISSDNAKNTVYLQMNSVKTDDTAVYYCAVDRRRYYCSGNRAFSSDYYYWGQGTQVTVSS	11

(I) EPL118 (VHH) VHH: QVQLQESGGGLVQAGGSLRLSCAASGFIFRAASMGWFRQSPGNERELVATVSSGDFTNYADSVKGRFTISRDNAKNTVYLQMNSLKPEDTAVYFCGATFVRSDGHHTIYGQGTQVTVSS
(II) EPL13 (VHH) VHH: QVQLQESGGGLVQPGGSLRLSCAASGFAFGNHWMYWYRQAPGRGRELVASISSGGSTNYVDSVKGRFTISRDNARNTVYLQMYSLKPEDTAVYYCGTSDNWGQGTQVTVSS
Asked: Which record shows the lower Cynomolgus EpCAM/Control: the first, I , or the second, II ? API: response body contains the label of the selected item.
Given back: I
